test.details: Percentage unbound in rat plasma
Type: ADME, cell-free
measurement.label: fraction unbound

# smiles.structure, measured.value
measured = [
    ("Cc1[nH]c(C(=O)NC2CCN(c3ncc(C(=O)O)s3)CC2)c(Cl)c1Cl", 0.086),
    ("COCC(COC)NC(=O)c1nc(N2CC[C@@H](NC(=O)c3[nH]c(C)c(Cl)c3Cl)[C@@H](OC)C2)sc1C(=O)O", 0.038),
    ("CO[C@H]1CN(c2nc(-c3ncccn3)c(C(=O)O)s2)CC[C@H]1NC(=O)c1[nH]c(C)c(Cl)c1Cl", 0.19),
]

---

pIC50: −log10 of the molar value.
pIC50 values recorded for ATP-binding cassette sub-family C member 2 (Homo sapiens)

# molecule, target.desc, sign.qualifier, pIC50
measured = [
    ("COCC(COC)NC(=O)c1nc(N2CC[C@@H](NC(=O)c3[nH]c(C)c(Cl)c3Cl)[C@@H](OC)C2)sc1C(=O)O", "ATP-binding cassette sub-family C member 2 (Homo sapiens)", "=", 3.70),
    ("COC[C@H](C)NC(=O)c1nc(N2CC[C@@H](NC(=O)c3[nH]c(C)c(Cl)c3Cl)[C@@H](OC)C2)sc1C(=O)O [AZD-5099]", "ATP-binding cassette sub-family C member 2 (Homo sapiens)", "=", 4.23),
    ("CO[C@H]1CN(c2nc(-c3ncnn3C)c(C(=O)O)s2)CC[C@H]1NC(=O)c1[nH]c(C)c(Cl)c1Cl", "ATP-binding cassette sub-family C member 2 (Homo sapiens)", "<", 3.70),
    ("COCCNC(=O)c1nc(N2CC[C@@H](NC(=O)c3[nH]c(C)c(Cl)c3Cl)[C@@H](OC)C2)sc1C(=O)O", "ATP-binding cassette sub-family C member 2 (Homo sapiens)", "=", 4.00),
    ("CO[C@H]1CN(c2ncc(C(=O)O)s2)CC[C@H]1NC(=O)c1[nH]c(C)c(Cl)c1Cl", "ATP-binding cassette sub-family C member 2 (Homo sapiens)", "<", 3.70),
    ("Cc1[nH]c(C(=O)NC2CCN(c3ncc(C(=O)O)s3)CC2)c(Cl)c1Cl", "ATP-binding cassette sub-family C member 2 (Homo sapiens)", "<", 3.70),
]

---

test.details: Dissociation constant, pKa of the compound
Type: physicochemical

# smiles.structure, pKa
rows = [
    ("CO[C@H]1CN(c2nc(-c3ncnn3C)c(C(=O)O)s2)CC[C@H]1NC(=O)c1[nH]c(C)c(Cl)c1Cl", 4.5),
    ("CO[C@H]1CN(c2nc(-c3cnccn3)c(C(=O)O)s2)CC[C@H]1NC(=O)c1[nH]c(C)c(Cl)c1Cl", 5.4),
    ("CO[C@H]1CN(c2ncc(C(=O)O)s2)CC[C@H]1NC(=O)c1[nH]c(C)c(Cl)c1Cl", 3.6),
    ("Cc1[nH]c(C(=O)NC2CCN(c3ncc(C(=O)O)s3)CC2)c(Cl)c1Cl", 3.4),
]

---

Known log10 of clearance of a selection of compounds
test.details: Clearance in Wistar rat at 10 mg/kg, iv
Type: ADME, organism-based
Set-up: dose 10 mg/kg, route intravenous
recorded.conditions: in vivo
measurement.label: log10 of clearance (log10 of the value in mL/min/kg)

# smiles.structure, measured.value
rows = [
    ("COCC(COC)NC(=O)c1nc(N2CC[C@@H](NC(=O)c3[nH]c(C)c(Cl)c3Cl)[C@@H](OC)C2)sc1C(=O)O", 1.11),
    ("COCCNC(=O)c1nc(N2CC[C@@H](NC(=O)c3[nH]c(C)c(Cl)c3Cl)[C@@H](OC)C2)sc1C(=O)O", 0.32),
    ("Cc1[nH]c(C(=O)NC2CCN(c3ncc(C(=O)O)s3)CC2)c(Cl)c1Cl", 1.89),
    ("CO[C@H]1CN(c2nc(-c3ncccn3)c(C(=O)O)s2)CC[C@H]1NC(=O)c1[nH]c(C)c(Cl)c1Cl", 1.26),
    ("COC[C@H](C)NC(=O)c1nc(N2CC[C@@H](NC(=O)c3[nH]c(C)c(Cl)c3Cl)[C@@H](OC)C2)sc1C(=O)O", 0.60),
    ("CO[C@H]1CN(c2ncc(C(=O)O)s2)CC[C@H]1NC(=O)c1[nH]c(C)c(Cl)c1Cl", 1.53),
]
